Source of measurements: patent US8563548B2

# procedure details: UV absorption characteristics (photoprotecting capacity)
# Format: physicochemical
# test settings: UVA, UVB, long UVA (340-400 nm)
quantity: region of UV absorption / maximum absorption

>  <mol>
O=C1C=C(c2ccsc2)/C(=C/c2ccsc2)O1

>  <result>
maximum is in UVB

$$$$
>  <mol>
O=C1C=C(c2ccc3ccccc3c2)/C(=C/c2ccc3ccccc3c2)O1

>  <result>
maximum is in UVB

$$$$
